# Target desc: Myotonin-protein kinase (Homo sapiens) (UniProt Q09013)
# Sequence (Q09013 whole entry): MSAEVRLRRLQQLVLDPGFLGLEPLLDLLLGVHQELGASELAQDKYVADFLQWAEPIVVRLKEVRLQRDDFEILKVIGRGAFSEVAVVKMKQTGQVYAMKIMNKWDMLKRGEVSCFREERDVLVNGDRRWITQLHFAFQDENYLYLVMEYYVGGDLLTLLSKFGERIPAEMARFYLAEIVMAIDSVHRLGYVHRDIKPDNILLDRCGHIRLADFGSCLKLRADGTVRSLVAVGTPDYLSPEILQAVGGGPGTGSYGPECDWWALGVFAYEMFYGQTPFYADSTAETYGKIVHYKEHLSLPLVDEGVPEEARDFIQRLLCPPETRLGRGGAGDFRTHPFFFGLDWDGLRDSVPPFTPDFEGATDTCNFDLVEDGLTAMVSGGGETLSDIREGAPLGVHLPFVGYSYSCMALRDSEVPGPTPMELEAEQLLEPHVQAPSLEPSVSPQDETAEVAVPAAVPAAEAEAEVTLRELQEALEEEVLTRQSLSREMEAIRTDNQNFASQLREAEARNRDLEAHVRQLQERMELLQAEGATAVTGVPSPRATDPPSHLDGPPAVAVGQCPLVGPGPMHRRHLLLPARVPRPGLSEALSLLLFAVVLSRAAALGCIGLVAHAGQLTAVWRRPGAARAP
Each entry below carries its recorded ΔTm.

| Compound | ΔTm |
| --- | --- |
| COc1cc2c(cc1OC)-c1n[nH]c(Nc3cccc(F)c3)c1C2 | 2.4 °C |
| CN(C)CC1CCn2c(c(C3=C(c4c[nH]c5ccccc45)C(=O)NC3=O)c3ccccc32)C1 (configuration not stated) | 6.4 °C |
| N#C/C(=C\c1ccc(O)c(O)c1)C(=O)NCc1ccccc1 | -0.6 °C |
| Cc1nc2sccn2c(=O)c1CCN1CCC(=C(c2ccccc2)c2ccc(F)cc2)CC1 | 0.1 °C |
| O=C1NC(=O)C(c2cn(CCCn3ccnc3)c3ccccc23)=C1Nc1ccccc1 | 4.5 °C |
| CC(C)c1cc(/C=C(\C#N)C(=O)NCCCc2ccccc2)cc(C(C)C)c1O | 1 °C |
| CC[C@H](CO)Nc1nc(NCc2ccccc2)c2ncn(C(C)C)c2n1 [SELICICLIB] | -0.7 °C |
| c1ccc(-c2n[nH]c3c2oc2ccccc23)cc1 | 0 °C |
| CC(C)(C)n1nc(-c2ccc(Cl)cc2)c2c(N)ncnc21 | 0.6 °C |
| NCCNc1ncc(C(N)=O)c(Nc2cccc(C(F)(F)F)c2)n1 | 3.9 °C |
| Nc1n[nH]c2nc3ccccc3nc12 [QUINOXALINE1] | -0.1 °C |
| CN(C)CCCn1cc(C2=C(c3c[nH]c4ccccc34)C(=O)NC2=O)c2ccccc21 [GF-109203] | 3.9 °C |
| C#Cc1cccc(Nc2ncnc3cc(OCCOC)c(OCCOC)cc23)c1 | 3.4 °C |
| CC(C)c1nn(-c2c(Cl)cccc2Cl)c2nc(Cc3ccc(OCCO)cc3)[nH]c(=O)c12 | -1.2 °C |
| COc1cc2ncnc(Nc3ccc(F)c(Cl)c3)c2cc1OCCCN1CCOCC1 | 3.6 °C |
| Cc1ccc(NC(=O)c2cccc(N(C)C)c2)cc1NC(=O)c1ccc(O)cc1 | -0.8 °C |
| COc1cc(/C=C/C(=O)CC(=O)/C=C/c2ccc(O)c(OC)c2)ccc1O [CURCUMIN] | 1.5 °C |

Just for reference, ChEMBL document CHEMBL1145498 is where these values come from.
